Values from paper PMC9482650

Biological target: Inadl_9, Q8NI35
Sequence (Q8NI35 1530-1615): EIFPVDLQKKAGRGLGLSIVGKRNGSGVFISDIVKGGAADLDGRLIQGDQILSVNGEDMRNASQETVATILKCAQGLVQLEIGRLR
Experiment: holdup assay
Parameters: key: below the threshold = too weak to quantify, mostly under pKd 3.1 to 4
Settings: plain residues with an end cap or a label only (N-terminal biotin on a linker: ado-ado)
measurement.kind: pKd

INSERT INTO assay_data (binder, result) VALUES
  ('HSGYRLNDYV [CLDN14, O95500]', 3.58),
  ('HLRARKSEWV [GJD4, Q96KN9]', 3.91),
  ('DDPSTAETVL [ABCA7, Q8IZY2]', 'below the threshold'),
  ('GSGAVEMESV [AQP6, Q13520]', 'below the threshold'),
  ('SAAKVLTSMC [GHRHR, Q02643]', 'below the threshold'),
  ('YLEPVLSSEL [ATP2A2, P16615;P16615-3]', 'below the threshold'),
  ('PEYLGLDVPV [ERBB2, P04626]', 'below the threshold'),
  ('CLREWCDAFL [BANF1, O75531]', 'below the threshold'),
  ('TACCHSETVV [TGFA, P01135]', 'below the threshold'),
  ('EKKTLIGIKL [GOT1L1, Q8NHS2]', 'below the threshold');
